// data source = PubChem BioAssay (NCI)

# Test system: EKVX NSCLC
# experiment notes: NCI tumour cell line growth inhibition, 48 h
In this section we review reported GI50 values for a set of compounds.

Lookup: I have this compound here, COC1CC(OS(=O)(=O)c2ccc(C)cc2)C(OC(=O)c2ccccc2)C(C)O1 (stereo not given) , and I need its recorded GI50.
Found: > 100000 nM

Lookup: COc1ccc(-c2cc(-c3ccccc3)nc(SCCCC(=O)NO)n2)cc1 , same question.
Found: 1660 nM

Lookup: COC(=O)C(Cc1ccccc1)NC(=O)NC(=O)NC(=O)CI (stereo not given) , same question.
Found: 11900 nM

Lookup: C[C@]12CC[C@H]3[C@@H](CCC4=CC(=O)CC[C@@H]43)[C@@H]1CC[C@@H]2OC(=O)CCc1ccccc1 , same question.
Found: 2230 nM

Lookup: CCN(C(=O)N1CCN(c2cc3c(cc2F)c(=O)c(C(=O)O)cn3C2CC2)CC1)c1nc(-c2ccc(C)cc2)cs1 , same question.
Found: 1520 nM

###

# Tested on: A498 renal
# experiment notes: NCI tumour cell line growth inhibition, 48 h
reported property: GI50

{"smiles input": "Cc1ccc(-c2cc(-c3ccc(C)cc3)nc(NCCNc3ccnc4cc(Cl)ccc34)n2)cc1", "GI50": "1.89 µM"}

Lookup: I have this compound here, CC(C)(C)c1ccc(OCCCCCCN2CCNCC2)cc1 , and I need its recorded GI50.
Found: 9.44 µM

Lookup: COc1cccc(C=Nc2cc(C)ccn2)c1O.COc1cccc(C=Nc2cc(C)ccn2)c1O.[Cu] , same question.
Found: 22.8 µM

Lookup: O=C(NN1C(=O)CSC12CCCCC2)c1[nH]c2ccc(F)cc2c1-c1ccccc1 , same question.
Found: 27.1 µM

Lookup: O=c1[nH]c2ccccc2nc1-c1c[nH]c2ccccc12 , same question.
Found: 7.4 µM

###

In this section we review reported TGI values for a set of compounds.
# Tested on: OVCAR-5 ovarian
# experiment notes: NCI tumour cell line growth inhibition, 48 h

Below are worked cases with known answers.
{"compound": "C1=NCCNCCN=Cc2ccc(cc2)OCc2cccc(n2)COc2ccc1cc2", "study system": "OVCAR-5 ovarian", "observed result": "> 100 µM"}
{"compound": "CCOC(=O)c1nc2ccc([N+](=O)[O-])cc2c2c1CCO2", "study system": "OVCAR-5 ovarian", "observed result": "> 100 µM"}
{"compound": "COc1ccc(N2C(=O)C3c4[nH]c5c(C)cccc5c4C4CCC(C(C)(C)C)CC4C3C2=O)cc1 (stereo unspecified)", "study system": "OVCAR-5 ovarian", "observed result": "> 10 µM"}
{"compound": "Brc1cccc(C2SCc3nc4ccccc4n32)c1 (stereo unspecified)", "study system": "OVCAR-5 ovarian", "observed result": "> 100 µM"}
{"compound": "O=C(NNC1=NCCN1)c1ccco1", "study system": "OVCAR-5 ovarian", "observed result": "> 100 µM"}

# evaluate next
Lookup: I have this compound here, COc1nc2c(c(=O)n1C)N(C(C)=O)C1C(N2)OCC(OC(C)=O)C1OC(C)=O (stereo unspecified) , and I need its recorded TGI.
Found: > 10 µM

###

# System: DU-145 prostate
# experiment notes: NCI tumour cell line growth inhibition, 48 h
In this section we review reported TGI values for a set of molecules.

Below are worked cases with known answers.
{"molecule": "COC(=O)c1c2n(c3ccccc13)C[C@H]1OC(C)(C)O[C@@H]21", "TGI": "> 100 µM"}
{"molecule": "O=C1c2ccccc2-c2c1c1ccc([N+](=O)[O-])cc1c(=O)n2CCCBr", "TGI": "> 100 µM"}

Lookup: I have this molecule here, C=C1CC2OC2(C(=O)O[C@H]2CCC3[C@@H]4CCC5=CC(=O)CC[C@]5(C)C4CC[C@@]32C)C1=O (stereo not given in full) , and I need its recorded TGI.
Found: 32.9 µM

Lookup: O=c1[nH]c2ccccc2nc1-c1c[nH]c2ccccc12 , same question.
Found: > 100 µM

Lookup: CN(C)c1ccc(N=Nc2ccc3nc[nH]c3c2)cc1 , same question.
Found: 77.3 µM

Lookup: CCN=C1C=CC(=C(c2ccc(N)cc2)c2ccc(N(CC)CC)c(C)c2)C=C1 , same question.
Found: 2.28 µM

Lookup: N#C/C(=C\c1ccccc1)C(=O)Nc1nnc(-c2ccccc2)o1 , same question.
Found: > 100 µM

Lookup: C1=NCCNCCN=Cc2ccc(cc2)OCc2cccc(n2)COc2ccc1cc2 , same question.
Found: > 100 µM

Lookup: Cc1c(/C=N/NC(=S)Nc2ccccc2Cl)c(=O)n(-c2ccccc2)n1C , same question.
Found: > 100 µM

Lookup: CNC(=O)N1CN(c2ccccc2)C2(CCN(CCCC(=O)c3ccc(F)cc3)CC2)C1=O , same question.
Found: > 100 µM

###

# Tested on: BT-549 breast
# experiment notes: NCI tumour cell line growth inhibition, 48 h
In this section we review reported TGI values for a set of molecules.

Below are worked cases with known answers.
{"molecule": "COCn1c2ccc(OC(C)=O)cc2c2c(=O)oc(N(C)C)nc21", "observed result": "> 100 µM"}
{"molecule": "CCN1CCC(CCOC)(CN2c3ccccc3Sc3ccc(Cl)cc32)C1 (stereo not given)", "observed result": "3.68 µM"}
{"molecule": "COc1ccccc1NC(=O)/C(Cc1nc2ccc([N+](=O)[O-])cc2[nH]c1=O)=N\\NC(=O)C[N+](C)(C)C", "observed result": "> 100 µM"}

Lookup: I have this molecule here, COc1ccc(NC2Oc3cc4c(cc3C(c3cccc(OC)c3OC)C2C)OCO4)cc1 (stereo not given) , and I need its recorded TGI.
Found: > 100 µM

###

# System: KM12 colon
# experiment notes: NCI tumour cell line growth inhibition, 48 h; in the data active means GI50 below about 0.43 µM; inactive means the rest
Respond only with the outcome that fits, drawn from yes = active, no = inactive

Some entries whose results are on file:
{"molecule": "C/C(=N\\Nc1ccc2ccccc2n1)c1ccccn1", "assigned label": "yes"}
{"molecule": "CC(C)CC(CC1=CCC2CC1C2(C)C)C1=C(O)C(C)(C)C(=O)C(C)(C)C1=O (centres undefined)", "assigned label": "yes"}
{"molecule": "COc1cccc(NC(=O)c2sc3nc4c(cc3c2N)CN(Cc2ccccc2)CC4)c1", "assigned label": "no"}
{"molecule": "COc1cccc(C=Nc2cc(C)ccn2)c1O.COc1cccc(C=Nc2cc(C)ccn2)c1O.[Cu]", "assigned label": "no"}
{"molecule": "COc1cc2c(c(OC)c1OC)-c1ncc3cc(OC)c(OC)c(OC)c3c1C2", "assigned label": "no"}
{"molecule": "COc1ccc2cc(-c3ccoc(=O)c3-c3cc(OC)c(OC)c(OC)c3)ccc2c1", "assigned label": "yes"}
{"molecule": "O=C(c1ccccc1)C(CN1CCOCC1)c1ccccc1 (centres undefined)", "assigned label": "no"}
{"molecule": "N#C/C(=C\\c1c(-c2ccccc2)[nH]c2ccccc12)S(=O)(=O)c1ccccc1", "assigned label": "no"}

Lookup: Dear all, I need the recorded test outcome for CN(C)c1ccc(/C=C\c2cccc[n+]2C)cc1 , thank you.
Found: no

Lookup: CN1CCN(Cc2ccc(NC(=O)c3cncc(C#Cc4cnc(N)c5ccncc45)c3)cc2C(F)(F)F)CC1 , same question.
Found: yes

Lookup: Cc1cc2c3ccc(C)[n+](C)c3ccc2n1C , same question.
Found: no

Lookup: N/C(=N\N=C\c1ccc(-c2ccccc2)cc1)N[N+](=O)[O-] , same question.
Found: no

Lookup: Nc1ncnc2[nH]ncc12 , same question.
Found: no

Lookup: CC(CN1CCN(CCOCCO)CC1)CN1c2ccccc2Sc2ccc(Cl)cc21 (centres undefined) , same question.
Found: no

Lookup: O=C(/C(=C/c1ccc([N+](=O)[O-])cc1)c1ccccc1)c1ccccc1 , same question.
Found: no

###

# System: CAKI-1 renal
# experiment notes: NCI tumour cell line growth inhibition, 48 h; in the data active means GI50 below about 0.43 µM; inactive means the rest
Respond only with the outcome that fits, drawn from active, inactive

Some entries whose results are on file:
{"smiles input": "O=C1c2ccccc2-c2c1c1ccc([N+](=O)[O-])cc1c(=O)n2CCCBr", "assigned label": "inactive"}
{"smiles input": "O=c1[nH]c2ccccc2nc1-c1c[nH]c2ccccc12", "assigned label": "inactive"}

Lookup: Dear all, I need the recorded test outcome for C[C@@H]1CC[C@H]2C(COCCOCC3=C(C(F)(F)F)O[C@@H]4O[C@@]5(C)CC[C@H]6[C@H](C)CC[C@@H]3[C@@]46OO5)=C(C(F)(F)F)O[C@@H]3O[C@@]4(C)CC[C@@H]1[C@]32OO4 , thank you.
Found: active

Lookup: COc1cc2c(cc1OCCCCOc1cc3c(cc1OC)C(=O)N1CCC[C@H]1CN3)N=C[C@@H]1CCCN1C2=O , same question.
Found: active

###

In this section we review reported TGI values for a set of compounds.
# Tested on: M14 melanoma
# experiment notes: NCI tumour cell line growth inhibition, 48 h

Lookup: I have this compound here, CC(=O)NC1=C(OS(=O)(=O)c2ccc(C)cc2)CN(C)C1=O , and I need its recorded TGI.
Found: 20 µM

Lookup: COC(=O)C1CC2(CCC1=O)Cc1ccccc1C2=O (stereo unspecified) , same question.
Found: > 100 µM

Lookup: CN(CCO)c1nc2c(c(=O)[nH]1)CCC2 , same question.
Found: > 100 µM

Lookup: N=C(N)c1ccc(N2CCCN(c3ccc(C(=N)N)cc3)CC2)cc1 , same question.
Found: > 100 µM

Lookup: CCOC(=O)C(=O)Nc1c(CC)cccc1C(C)C , same question.
Found: > 100 µM

Lookup: CC(=O)OCC(OC(C)=O)C(OC(C)=O)C(C=NN(C(C)=O)S(=O)(=O)c1ccc(/C=C2\NC(=O)NC2=O)cc1)OC(C)=O (stereo unspecified) , same question.
Found: > 100 µM

Lookup: O=C1C2CC=CCC2C(=O)N1n1c(-c2ccccc2)n[nH]c1=O (stereo unspecified) , same question.
Found: > 100 µM

Lookup: O=C(c1ccccc1)C(CN1CCOCC1)c1ccccc1 (stereo unspecified) , same question.
Found: 3.57 µM

Lookup: N#CC(C(=O)CCC(=O)Nc1cccc(Cl)c1)c1ccccc1 (stereo unspecified) , same question.
Found: > 100 µM

Lookup: COc1ccc(N2C(=O)C3c4[nH]c5c(C)cccc5c4C4CCC(C(C)(C)C)CC4C3C2=O)cc1 (stereo unspecified) , same question.
Found: > 10 µM

Lookup: O=c1cc(-c2ccccc2)[nH]c2cc(O)ccc12 , same question.
Found: 39 µM
